Molecular target: RSV-F of RSV subtype A strain A2 (1540) (respiratory syncytial virus subtype A, …, UniProt P03420 26-574)
Assay: cell-based or functional assay
Below, each of the binders is paired with its reported IC50 [pM] for RSV A2 Neutralization, Trial 2 value.
readoutKind: IC50 [pM] for RSV A2 Neutralization, Trial 2 (pM)

binder	displayUnit	readoutValue
H1M3622N (antibody, V domains shown) VH: QVQLQQWGAGLLKPSETLSLTCAVYGGSLSDYYWSWIRQPPGKGLEWIGEINHSGDTNYDPSLKSRLTISVDTSKNQFSLKLNSVTAADTAVYYCASLYFNFWMWGRGALVTVSS VL: DIVMTQTPLSSPVILGQPASISCRSSQSLVYSDGNTYLSWLQQRPGQPPRLLIYKISNRFSGVPDRFSGSGTGTDFTLKISRVEAEDVGIYYCMQTTQFPLTFGGGTKVEIK	pM	82
Control II (motavizumab sequence) (antibody, V domains shown) VH: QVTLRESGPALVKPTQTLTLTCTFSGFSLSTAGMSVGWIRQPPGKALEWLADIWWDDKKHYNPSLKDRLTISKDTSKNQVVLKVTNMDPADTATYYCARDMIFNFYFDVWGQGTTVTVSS VL: DIQMTQSPSTLSASVGDRVTITCSASSRVGYMHWYQQKPGKAPKLLIYDTSKLASGVPSRFSGSGSGTEFTLTISSLQPDDFATYYCFQGSGYPFTFGGGTKVEIKR	pM	30
H1M3627N (antibody, V domains shown) VH: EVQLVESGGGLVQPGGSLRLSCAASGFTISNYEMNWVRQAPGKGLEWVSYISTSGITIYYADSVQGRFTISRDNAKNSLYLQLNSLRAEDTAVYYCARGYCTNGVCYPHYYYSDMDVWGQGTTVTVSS VL: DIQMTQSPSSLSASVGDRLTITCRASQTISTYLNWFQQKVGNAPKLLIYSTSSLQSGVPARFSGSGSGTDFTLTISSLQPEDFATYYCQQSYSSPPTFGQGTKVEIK	pM	4
Control I (palivizumab sequence) (antibody, V domains shown, also called Control 1; SYNAGIS) VH: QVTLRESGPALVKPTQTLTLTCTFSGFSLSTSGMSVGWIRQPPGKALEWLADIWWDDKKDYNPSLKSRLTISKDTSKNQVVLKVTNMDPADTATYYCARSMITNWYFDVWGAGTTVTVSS VL: DIQMTQSPSTLSASVGDRVTITCKCQLSVGYMHWYQQKPGKAPKLLIYDTSKLASGVPSRFSGSGSGTEFTLTISSLQPDDFATYYCFQGSGYPFTFGGGTKLEIKR	pM	950
H1M3624N (antibody, V domains shown, also called H1M2634N) VH: QVQLEQSGAEVKKPGTSVRISCKASGDIFTGYYMNWVRQAPGQGLEWMGWINTNSGGTYFSQRFQGRVTLTRDTSIRTAYMELSRLRSDDTAVYYCARMFYDILTGSDVFDIWGQGTMVTVSS VL: DIQMTQSPSSLSASVGDRVTITCRASQDIRNDLGWYHQKPGKAPKCLIYGASSLQSGVPSRFSGSGSGTEFTLTISSLQPEDFATYYCLQHKNYMYTFGQGTKLEIK	pM	270
H1M3621N (antibody, V domains shown) VH: QVQLEQSGAEVKKPGASVRISCKASGDTFTGYYINWVRQAPGQGLEWMGWINTNSGGTYFSQKFQVRVILTRDTSINTAYMELSRLRSDDTAVYYCARMFYDILTNSDIFDIWGQGTMVTVSS VL: DIQMTQSPSSLSASVGDRVTITCRASQDIRNDLGWYQQKPGKAPKCLIYGASSLQSGVPSRFSGSGSGTEFTLTISSLQPEDFATYYCLQHKNYMYTFGQGTKLEIK	pM	180
